The reported numbers originate from paper PMC11502347.

We begin with a simple list: items and their reported MIC90.
# Tested on: Enterococcus faecium NCTC 7171 T
# assayText: microbe, parasite or virus in culture
# Format: cell-based
# particulars: NCTC7171
endpoint: MIC90

{"compound": "O=C(Nc1ccc(N2CCSCC2)c(F)c1)c1ccc2no[n+]([O-])c2c1", "result": "> 200 µM"}
{"compound": "O=C(Nc1ccc(N2CCN(c3ccccn3)CC2)c(F)c1)c1ccc2no[n+]([O-])c2c1", "result": "> 200 µM"}
{"compound": "NNC(=O)c1ccncc1", "result": "> 500 µM"}
{"compound": "CO[C@H]1/C=C/O[C@@]2(C)Oc3c(C)c(O)c4c(O)c(c(/C=N/N5CCN(C)CC5)c(O)c4c3C2=O)NC(=O)/C(C)=C\\C=C\\[C@H](C)[C@H](O)[C@@H](C)[C@@H](O)[C@@H](C)[C@H](OC(C)=O)[C@@H]1C", "result": "> 100 µM"}

---

# Test system: Murine macrophage J774.A1
# assayText: cells
# Type: cell-based
# particulars: Mus musculus, cytotoxicity, resazurin, exposure 24 and 72 h, which one not given
pIC50: −log10 of the molar value.

{"compound": "NNC(=O)c1ccncc1 [INH, isoniazid]", "pIC50": "< 3.14"}
{"compound": "O=C(Nc1ccc(N2CCN(c3ccccn3)CC2)c(F)c1)c1ccc2no[n+]([O-])c2c1 [Compound 5n]", "pIC50": "< 3.64"}
{"compound": "CO[C@H]1/C=C/O[C@@]2(C)Oc3c(C)c(O)c4c(O)c(c(/C=N/N5CCN(C)CC5)c(O)c4c3C2=O)NC(=O)/C(C)=C\\C=C\\[C@H](C)[C@H](O)[C@@H](C)[C@@H](O)[C@@H](C)[C@H](OC(C)=O)[C@@H]1C [RFP, rifampicin]", "pIC50": "< 3.92"}
{"compound": "O=C(Nc1ccc(N2CCSCC2)c(F)c1)c1ccc2no[n+]([O-])c2c1 [Compound 5b]", "pIC50": 4.39}
